Target: T1, human CD81 on CD81-expressing cells (Jurkat E6.1, human PBMC, Ramos) (human, UniProt P60033 1-236)
T1 sequence: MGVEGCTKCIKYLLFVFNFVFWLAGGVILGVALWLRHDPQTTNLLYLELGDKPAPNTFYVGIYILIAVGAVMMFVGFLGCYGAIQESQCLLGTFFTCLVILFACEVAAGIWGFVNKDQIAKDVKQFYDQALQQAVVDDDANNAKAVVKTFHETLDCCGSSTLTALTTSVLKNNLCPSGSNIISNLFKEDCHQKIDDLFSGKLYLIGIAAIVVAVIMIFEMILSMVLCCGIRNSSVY
Assay: cell-based or functional assay
measured.quantity: Jurkat chemotaxis (% of control IgG4) at 10 µg/mL

binder	experimental.value
002-C02 (antibody, human IgG4 S228P, lambda, V domains shown, IgG4 S228P) VH: EVQLLESGGGLVQPGGSLRLSCAASGFTFSSNYMSWVRQAPGKGLEWVSYISSSSSYTDYADTVKGRFTISRDNSKNTLYLQMNSLRAEDTAVYYCASYSYGRDSFDYWGQGTLVTVSS VL: QSVLTQPPSASGTPGQRVTISCTGSTSNIGAGYDTHWYQQLPGTAPKLLIYGNSNRPSGVPDRFSGSKSGTSASLAISGLRTEDEADYYCQSYDTNLSVWVFGGGTKLTVLG	-4%
